Test system: GP2D (KRAS G12D) cells
experimental-details: 2D cell viability assay (CellTiter-Glo)
Assay type: cell-based
assay-context: GP2d, 96 h, 4 days
Catalogue of EC50 values
Expressed in nM, but write only the number.

C#Cc1c(F)ccc2cccc(-c3nc4c5c(nc(OC[C@@]67CCCN6C[C@@H](OC(C(F)(F)F)(C(F)(F)F)C(F)(F)F)C7)nc5c3F)N3C[C@H]5CC[C@H](N5)[C@H]3CC4)c12 (stereo in doubt) | 100

# get_value(readout='EC50', item= C#Cc1c(F)ccc2cccc(-c3nc4c5c(nc(OC[C@@]67CCCN6C[C@@]6(CC6(F)F)C7)nc5c3F)N3C[C@H]5CC[C@H](N5)[C@H]3CC4)c12 ) 7

----------
Catalogue of pEC50 values
Test system: GP2D (KRAS G12D) cells
experimental-details: 2D cell viability assay (CellTiter-Glo)
Type: cell-based
assay-context: GP2d, 96 h, 4 days
Description: Example B. 2D Cell Viability Assay Compounds were tested in a 384-well format for their ability to inhibit the viability of GP2D (KRAS G12D) cells in 2D assays. Compounds were serially diluted (1:3) in DMSO. The LabCyte ECHO Acoustic dispenser system was used to pre-spot assay plates with 200 nL of test molecule per well. […] The plates were incubated at 37° C., 5% CO2 for 4 days before addition of CellTiter-Glo (CTG) reagent and measurement of luminescence signal. […]
pEC50 here: minus log base 10 of the concentration, concentration in moles per litre.

Examples with answers:
C#Cc1c(F)ccc2cc(O)cc(-c3nc4c5c(nc(OCC6(CN7CCOCC7)CC6)nc5c3F)N3C[C@H]5CC[C@H](N5)[C@H]3CO4)c12 | 8.15
C#Cc1c(F)ccc2cccc(-c3nc4c5c(nc(OC[C@@]67CCCN6C[C@H](F)C7)nc5c3F)N3C[C@H]5CC[C@H](N5)[C@@H]3[C@@H](C)C4)c12 | 7.56
C#Cc1c(F)ccc2cccc(-c3nc4c5c(nc(OC[C@@]67CCCN6[C@H](COC(C)(C)C)CC7)nc5c3F)N3C[C@H]5CC[C@H](N5)[C@H]3CC4)c12 | 6.90
Oc1cc(-c2nc3c4c(nc(OCC5(CN6CCC(OC(F)(F)F)CC6)CC5)nc4c2F)N2C[C@H]4CC[C@H](N4)[C@H]2CC3)c2c(OC(F)(F)F)c(F)ccc2c1 | 7.40
Oc1cc(-c2nc3c4c(nc(OC[C@@]56CCCN5C[C@H](F)C6)nc4c2F)N2C[C@H]4CC[C@H](N4)[C@H]2CO3)c2c(OC3CC3)c(F)ccc2c1 | 7.55

Return pEC50 measured with GP2D (KRAS G12D) cells given this compound: Oc1cc(-c2nc3c4c(nc(OC[C@@]56CCCN5C[C@H](F)C6)nc4c2F)N2C[C@H]4CC[C@H](N4)[C@H]2CO3)c2c(F)c(F)ccc2c1 7.72

Also, C#Cc1c(F)ccc2cc(O)cc(-c3nc4c5c(nc(OCC6(CN7CCC(Oc8ccnc(C(F)(F)F)n8)CC7)CC6)nc5c3F)N3C[C@H]5CC[C@H](N5)[C@H]3CC4)c12 please. 8.29

Also, C#Cc1c(F)ccc2cc(N)cc(-c3nc4c5c(nc(OC[C@@]67CCCN6C[C@H](F)C7)nc5c3F)N3C[C@H]5CC[C@H](N5)[C@@H]3CC[C@H]4C)c12 please. 7.15

Also, C#Cc1c(F)ccc2cccc(-c3nc4c5c(nc(OC[C@@]67CCCN6C[C@H](F)C7)nc5c3F)N3C[C@H]5CC[C@H](N5)[C@H]3CC[C@H]4C)c12 please. 8.72

Also, CCc1c(F)ccc2cccc(-c3nc4c5c(nc(OC[C@@]67CCCN6C[C@H](F)C7)nc5c3F)N3C[C@H]5CC[C@H](N5)[C@@H]3[C@@H](C)C4)c12 please. 7.00

----------
Test system: GP2D (KRAS G12D) cells
experimental-details: 2D cell viability assay (CellTiter-Glo)
Format: cell-based
assay-context: GP2d, 96 h, 4 days
Catalogue of EC50 values
Expressed in nM, but write only the number.

C#Cc1c(F)ccc2cccc(-c3nc4c5c(nc(OC[C@@]67CCCN6[C@H](COc6cc(C(F)(F)F)cnn6)CC7)nc5c3F)N3C[C@H]5CC[C@H](N5)[C@H]3CCC4)c12 | 2.4

Return EC50 measured with GP2D (KRAS G12D) cells given this compound: C#Cc1c(F)ccc2cccc(-c3nc4c5c(nc(OC[C@@]67CCCN6C[C@H](F)C7)nc5c3F)N3C[C@H]5CC[C@H](N5)[C@H]3CC4)c12 9

Also, C#Cc1c(F)ccc2cccc(-c3nc4c5c(nc(OC[C@@]67CCCN6[C@H](COc6cccc(S(F)(F)(F)(F)F)c6)CC7)nc5c3F)N3C[C@H]5CC[C@H](N5)[C@@H]3[C@@H](C)C4)c12 please. 435

Also, C#Cc1c(F)ccc2cc(O)cc(-c3nc4c5c(nc(OC[C@@]67CCCN6[C@H](CN=[N+]=[N-])CC7)nc5c3F)N3C[C@H]5CC[C@H](N5)[C@H]3CO4)c12 please. 4

Also, C#Cc1c(F)ccc2cc(O)cc(-c3nc4c5c(nc(OC[C@@]67CCCN6[C@H](COC(C(F)(F)F)(C(F)(F)F)C(F)(F)F)CC7)nc5c3F)N3C[C@H]5CC[C@H](N5)[C@H]3CC4)c12 please. 0.2

----------
experimental-target: GDP-loaded KRAS G12D (Homo sapiens (Human), UniProt P01116, G12D)
Sequence (P01116-2 other isoform, or with tags, fused parts or gaps G12D): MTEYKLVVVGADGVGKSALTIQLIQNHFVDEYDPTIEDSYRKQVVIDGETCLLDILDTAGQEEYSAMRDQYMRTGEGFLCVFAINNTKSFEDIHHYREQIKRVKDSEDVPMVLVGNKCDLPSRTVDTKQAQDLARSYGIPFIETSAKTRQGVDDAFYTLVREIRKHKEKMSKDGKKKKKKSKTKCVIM
experimental-details: KRAS G12D (GDP) biochemical assay (TR-FRET probe displacement)
assay-context: 2 hours
pIC50: −log10 of the molar value.
Mark n for pIC50 values under 9, and y for everything at or above.

A selection of reference data follows.
C#Cc1c(F)ccc2cccc(-c3nc4c5c(nc(OC[C@@]67CCCN6C[C@H](F)C7)nc5c3F)N3C[C@H]5CC[C@H](N5)[C@H]3C[C@H]4O)c12 | y
C#Cc1c(F)ccc2cccc(-c3nc4c5c(nc(OC[C@@]67CCCN6C[C@H](F)C7)nc5c3F)N3C[C@H]5CC[C@H](N5)[C@H]3C[C@@H]4F)c12 | n
C#Cc1c(F)ccc2cc(O)cc(-c3nc4c5c(nc(OC[C@@]67CCCN6C[C@H](F)C7)nc5c3F)N3C[C@H]5CC[C@H](N5)[C@H]3CCCC4)c12 | y

Turning to the following compound.
Threshold query (pIC50 >= 9) on Fc1ccc2cccc(-c3nc4c5c(nc(OCC6(CN7CC[C@H](OC(F)(F)F)C7)CC6)nc5c3F)N3C[C@H]5CC[C@H](N5)[C@H]3CC4)c2c1OC(F)(F)F n

----------
System: GP2D (KRAS G12D) cells
experimental-details: 2D cell viability assay (CellTiter-Glo)
Format: cell-based
assay-context: GP2d, 96 h, 4 days
experimental-readout: EC50 (nM)
Expressed in nM, but write only the number.

Examples with answers:
C#Cc1c(F)ccc2cc(O)cc(-c3nc4c5c(nc(OC[C@@]67CCCN6C[C@H](F)C7)nc5c3F)N3C[C@H]5CC[C@H](N5)[C@H]3CCC4)c12 | 0.17
C#Cc1c(F)ccc2cccc(-c3nc4c5c(nc(OC[C@@]67CCCN6[C@H](COc6nccnc6C(F)F)CC7)nc5c3F)N3C[C@H]5CC[C@H](N5)[C@H]3CCC4)c12 | 1
C#Cc1c(F)ccc2cc(O)cc(-c3nc4c5c(nc(OC[C@@]67CCCN6[C@H](COc6cccc(S(F)(F)(F)(F)F)c6)CC7)nc5c3F)N3C[C@H]5CC[C@H](N5)[C@H]3CC4)c12 | 8.7
C#Cc1c(F)ccc2cc(N)cc(-c3cc4c5c(nc(OC[C@@]67CCCN6C[C@H](F)C7)nc5c3F)N3C[C@H]5CC[C@H](N5)[C@@H]3[C@@H](C)C4)c12 | 4.9
C#Cc1c(F)ccc2cccc(-c3c(Cl)c4c5c(nc(OC[C@@]67CCCN6C[C@H](F)C7)nc5c3F)N3C[C@H]5CC[C@H](N5)[C@H]3CC4)c12 | 64

# get_value(readout='EC50', item= C#Cc1c(F)ccc2cccc(-c3nc4c5c(nc(OC[C@@]67CCCN6[C@H](COc6cc(C(F)(F)F)ncn6)CC7)nc5c3F)N3C[C@H]5CC[C@H](N5)[C@H]3CC[C@H]4C)c12 ) 1.2

Also, C#Cc1c(F)ccc2cccc(-c3nc4c5c(nc(OC[C@]67CCCN6CC(OC(C(F)(F)F)(C(F)(F)F)C(F)(F)F)C7)nc5c3F)N3C[C@H]5CC[C@H](N5)[C@H]3CC4)c12 (stereo partly shown) please. 1000

Also, Oc1cc(-c2nc3c4c(nc(OC[C@@]56CCCN5C[C@H](F)C6)nc4c2F)N2C[C@H]4CC[C@H](N4)[C@H]2CO3)c2c(OC(F)(F)F)cccc2c1 please. 24

Also, C#Cc1c(F)ccc2cc(O)cc(-c3nc4c5c(nc(OCC6(CN7CCC[Si](C)(C)CC7)CC6)nc5c3F)N3C[C@H]5CC[C@H](N5)[C@H]3CC4)c12 please. 3.9

Also, C#Cc1c(F)ccc2cccc(-c3cc4c5c(nc(OC[C@@]67CCCN6C[C@H](F)C7)nc5c3F)N3C[C@H]5CC[C@H](N5)[C@H]3CCC4)c12 please. 4.5
